assay: Human HepG2 cell viability assay in 384 well format; format: toxicity, cell-based; set-up: dose 125 nL, time 70.5 hour; concentration not given beside the values; settings: HepG2 cells, read-out: Inhibition
Kindly state cytotoxicity at 70.5 h for each of the entries shown.
Answers are plain numbers, in %.

Examples with their reported cytotoxicity at 70.5 h follow.
{"Compound": "COc1ccc(N(CCC(N)=O)C(=O)CSc2ccc(Cl)cc2)cc1", "cytotoxicity at 70.5 h (%)": -0.942}
{"Compound": "CC1CC(=O)c2cnc3nc(N4CCOCC4)[nH]c(=O)c3c2C1 (centres undefined)", "cytotoxicity at 70.5 h (%)": -15.8}
{"Compound": "CNc1snc(C)c1C(=O)N1CCCC(n2ccnc2C)C1 (centres undefined)", "cytotoxicity at 70.5 h (%)": -4.48}

Quick batch: cytotoxicity at 70.5 h for everything below.
1. CCC(C(=O)NCCc1ccn(-c2ccccc2)n1)N1CCCC1=O (centres undefined)
2. COc1ccccc1-c1ncc(CN2CCC3(CCN(C)C3)CC2)cn1
3. CN1CCC(c2n[nH]c3ncccc23)C1.O=CO (centres undefined)

Result:
1: -5.95; 2: -8.29; 3: 81.6

* * *

assay: Human HepG2 cell viability assay in 384 well format; format: toxicity, cell-based; parameters: dose 125 nL, time 70.5 hour; concentration not given beside the values; conditions: HepG2 cells, read-out: Inhibition
Quantity name: cytotoxicity at 70.5 h

Sample records with cytotoxicity at 70.5 h:
{"Compound": "Cc1nc(CN2CCCC(Cn3cncn3)C2)no1 (stereo not given)", "Quantity name": "cytotoxicity at 70.5 h", "Readout value": "15.8%"}
{"Compound": "COc1ccc(F)c(CN2CCC(c3cc(O)nc(C)n3)C2)c1 (stereo not given)", "Quantity name": "cytotoxicity at 70.5 h", "Readout value": "32.2%"}
{"Compound": "Cc1cnc(NCC(C)(C)N2CCN(C)CC2)nc1", "Quantity name": "cytotoxicity at 70.5 h", "Readout value": "-0.355%"}
{"Compound": "O=C(C1CCOCC1)N1C[C@@H]2[C@@H](C1)OCC(=O)N2Cc1ccncc1", "Quantity name": "cytotoxicity at 70.5 h", "Readout value": "-5.97%"}
{"Compound": "CCNC(=O)NC1CCN(c2ccc(S(=O)(=O)CC)cc2)CC1", "Quantity name": "cytotoxicity at 70.5 h", "Readout value": "0.434%"}
{"Compound": "COc1ccccc1CN(CC1CCCO1)C(=O)c1scnc1C (stereo not given)", "Quantity name": "cytotoxicity at 70.5 h", "Readout value": "-12.6%"}

Record cytotoxicity at 70.5 h per entry; entries follow.
1. CC(C)N(C)CC(=O)NCCc1nc(C(F)(F)F)cs1
2. COc1ccnc(CN2CCC(O)(c3ccc(C)cn3)CC2)c1OC
3. O=C1CC2(CCN(S(=O)(=O)c3cccs3)C2)CN1c1cccc(F)c1 (stereo not given)

Result:
1. -5.26%
2. -5.69%
3. -9.07%

Provide reported cytotoxicity at 70.5 h for each item, in the same order as listed.
1. NC(=O)C(NC(=O)c1cc(Cl)c[nH]1)c1ccccc1 (stereo not given)
2. Cn1cc(N2C[C@@H]3CN(S(=O)(=O)C4CC4)C[C@@H]3C2=O)cn1
3. NC(=O)CN(Cc1ccc(Br)cc1)C(=O)c1ccncc1

Result:
1. -8.05%
2. 2.74%
3. -2.62%

Quick batch: cytotoxicity at 70.5 h for everything below.
1. CC(C)c1ccc(C(=O)O)cc1S(=O)(=O)Nc1ccc(=O)n(C)c1
2. COc1ccccc1-c1nnc([C@H]2CCN(C(C)=O)C2)o1
3. CN(C(=O)Cn1nc(-c2ccc(F)cc2)oc1=O)c1ccccc1
4. N#CC1COCCN1S(=O)(=O)c1ccc(F)c(Br)c1 (stereo not given)
5. CC1=C(c2ccc(Cl)cc2)S(=O)(=O)N=C1N1CCc2ccccc21
6. CNS(=O)(=O)c1ccc(CN2CCN(Cc3ncccc3C)CC2)cc1

Result:
2.84%
-6.37%
-11.5%
-9.56%
-2.07%
-15.3%

Report cytotoxicity at 70.5 h for every entry below.
1. CN(C)C[C@H]1OC[C@@H]2CCN(S(=O)(=O)c3cccs3)C[C@@H]21
2. Cc1nn(C)c(C)c1C1CCCN1Cc1nc(-c2ccco2)oc1C (stereo not given)

Result:
1: 12.4%; 2: -2.24%

* * *

Assignment: determine reported cytotoxicity at 70.5 h for the given compounds.
test: Human HepG2 cell viability assay in 384 well format; assay type: toxicity, cell-based; parameters: dose 125 nL, time 70.5 hour; concentration not given beside the values; conditions: HepG2 cells, read-out: Inhibition

{"Compound": "COC(=O)c1ncccc1N1CCCC1", "cytotoxicity at 70.5 h": "-2.82%"}

Would you be so kind as to report cytotoxicity at 70.5 h for each listed record?
1. Cc1c(C(=O)O)cnn1-c1ccc(-c2nc(C3CC3)no2)cn1
2. Cc1cncc(C(=O)N2CCCCC2c2nc(C)cs2)c1 (stereo not given)
3. N#Cc1ccc(NC2CCN(c3ncccn3)CC2)cc1Cl
4. Cc1cccc(C(=O)N2CCc3c(CN(C)C)nn(C)c3C2)n1
5. COCCN1Cc2ccnn2CC(COCc2cccnc2)C1 (stereo not given)
6. CC(CNC(=O)c1ccncc1F)Oc1ccc(F)cc1 (stereo not given)

Result:
-14%
17.3%
7.18%
-14.3%
-5.12%
-0.61%

* * *

For each of the compounds below, state its cytotoxicity at 70.5 h.
experiment: Human HepG2 cell viability assay in 384 well format; assay type: toxicity, cell-based; design: dose 125 nL, time 70.5 hour; concentration not given beside the values; conditions: HepG2 cells, read-out: Inhibition
Give bare numbers, in %.

Check out these entries, answers already filled in.
{"Compound": "CN1[C@H](CN2CCCC2)C[C@@H]2CN(C(=O)c3cccn3C)CC[C@@H]21", "Unit": "%", "Readout value": 1.34}
{"Compound": "CC(C)n1ncc2cc(NC(=O)N3CCSCC3)cnc21", "Unit": "%", "Readout value": -3.2}
{"Compound": "CN(Cc1ccc(C(=O)NCC2COCCO2)c(=O)[nH]1)CC(C)(C)C (stereo not given)", "Unit": "%", "Readout value": 6.27}
{"Compound": "O=C(CCn1cncn1)N1CCCC1c1noc(C2CC2)n1 (stereo not given)", "Unit": "%", "Readout value": -7.06}

Now let's try a different one.
Ask: Entry Cc1cc(CN2C[C@@H]3COC[C@H](C(=O)N4CCCCO4)[C@@H]3C2)no1 needs its cytotoxicity at 70.5 h filled in; supply it.
Result: -11.3

* * *

assay: Human HepG2 cell viability assay in 384 well format; assay type: toxicity, cell-based; parameters: dose 125 nL, time 70.5 hour; concentration not given beside the values; settings: HepG2 cells, read-out: Inhibition
Please respond with reported cytotoxicity at 70.5 h for every item in the list.
One number for each entry, in %.

{"Compound": "CN(C)C(=O)N1CCN(CCCc2ccccc2)[C@H]2CS(=O)(=O)C[C@H]21", "Readout value": -1.41}

Lab note: each compound below needs its cytotoxicity at 70.5 h filled in.
1. O=C(NCCC1CN(Cc2cccnc2)CCO1)c1ccsc1 (configuration not stated)
2. O=c1ccc(S(=O)(=O)N2CCCC2)cn1CC1CCCCO1 (configuration not stated)
3. N#Cc1cnn(C(=O)CCCOc2ccccc2Cl)c1N

Result:
1. 6.62
2. -11.1
3. 9.75

# return cytotoxicity at 70.5 h for each item in the list
1. Cc1nnc2n1CCN(C(=O)c1cc(Cl)c(Cl)n1C)C2
2. CCC(C)NC(=O)N1CCCn2cnc(CO)c2C1 (configuration not stated)
3. CC(C)c1noc(C(C)N2CCN(Cc3nnc(C4CC4)o3)CC2)n1 (configuration not stated)
4. CCC(=O)NCC(=O)N(C)C(c1ccc(Cl)cc1)c1cccnc1 (configuration not stated)
5. O=C1NCCN2CCN(C(=O)NCCc3ccccc3)CC12 (configuration not stated)
6. Cc1cc(=O)[nH]c(=O)n1COCc1ccccc1
7. COc1cc(C)ccc1C(=O)N1C[C@@H](CN(C)CCO)[C@@H](CO)C1
8. N#Cc1ccc(F)cc1Cn1cnc(C2CCC2)cc1=O

Result:
-3.86
-7.63
-3.65
-1.51
-9.06
-18.6
4.4
-9.04

* * *

Would you mind telling me the reported cytotoxicity at 70.5 h of each entry?
experiment: Human HepG2 cell viability assay in 384 well format; type: toxicity, cell-based; design: dose 125 nL, time 70.5 hour; concentration not given beside the values; conditions: HepG2 cells, read-out: Inhibition
One number for each entry, in %.

Some molecules with known cytotoxicity at 70.5 h results, for comparison:
{"Molecule": "N#Cc1ccc(C(=O)N2CCOC[C@H](Oc3cnccn3)C2)cc1", "cytotoxicity at 70.5 h / %": -0.682}
{"Molecule": "O=C(N1CCC(Oc2ccncc2)C1)C1(c2ccccc2F)CC1 (stereo not drawn)", "cytotoxicity at 70.5 h / %": -16.9}
{"Molecule": "O=C1N(c2ccc(Cl)cc2)Cc2n[nH]c(=O)n21", "cytotoxicity at 70.5 h / %": -2.4}

I would be grateful if you could provide cytotoxicity at 70.5 h for each of the following entries.
1. O=c1oc(-c2ccc(F)cc2)nn1CCS(=O)(=O)c1ccccc1
2. COc1ccc(Cl)cc1CS(=O)(=O)CC(=O)N(C)Cc1ccccc1F
3. CN(Cc1ccc(C#N)cc1)c1ncc(C(N)=O)cc1Cl
4. COc1ccc2c(c1)OCC(Cc1ccc(CN)cn1)C2 (stereo not drawn)

Result:
-9.58
-12.1
-7.36
-7.48

// each molecule listed below needs its cytotoxicity at 70.5 h
1. O=C(NCc1cncc2c1CCN(C1CCOCC1)C2)c1ccco1
2. CCNc1ncc(C(=O)N(C)CCc2nc3cc(Cl)ccc3[nH]2)cn1
3. O=C(c1cc(Cl)ccc1OC1CCN(C2CCCC2)CC1)N1CCCO1
4. CC1CN(C(=O)NCCCn2cncn2)CCO1 (stereo not drawn)
5. Cc1noc(C)c1C(=O)N1CCC(Nc2cccnn2)CC1
6. CC1COCCN1Cc1nc(-c2cccs2)no1 (stereo not drawn)

Result:
[-2.15, -16.7, 11.8, -1.85, 0.523, -31]
